Data origin, for the record: patent US20090317414A1

Kindly state Kd for each of the entries shown.
Subject Of Test: soluble H-2K^b (soluble extracellular domains); heavy chain residues 1-274 with C-terminal His-tag and … (mouse)
Measurement Protocol: inhibition assay with soluble H-2K^b, 4° C.
Hi! Could you send only the number? It should be in nM, unit omitted.

Prompt line: Given the entry SIINFEKL [OVA8 (SIINFEKL), Chicken ovalbumin257-264] , report its measured Kd.
Response line: 6

Prompt line: SAPDFRPA (Synthetic peptide) [MUC1-8-5F (SAPDFRPA)] ?
Response line: 460

Prompt line: SAPDTRPL (Synthetic peptide) [MUC1-8-8L (SAPDTRPL)] ?
Response line: 150

Prompt line: SAPDFRPL (Synthetic peptide) [MUC1-8-5F8L (SAPDFRPL)] ?
Response line: 160

Prompt line: SAPDTRPA (Synthetic peptide, purity >95%; also called MUC1-8 peptide; parent non-canonical peptide MUC1-8) [MUC1-8 (SAPDTRPA)] ?
Response line: 433
